- assayDetails: Metabolic stability test in liver S9
- Type: in vitro ADME
- runParameters: pH 7.4; unchanged form after 10 minutes at 37°C, human liver S9 2 mg protein/mL, LC/MS; read-out: Remaining rate in human liver S9 (%/10min)
Recorded measurements of remaining at 10 min, one per entry
recordedEndpoint: remaining at 10 min (%)

>>> df
                                        smi     recordedendpoint  resultunit  assayresult
0  CCOC(=O)c1cc(OC)c(OC(=O)CCCc2ccc(NC(=O)c3ccc(C)nc3-c3ccc(C(F)(F)F)cc3)c(C(=O)N(C)C)c2)c(C(=O)OC)c1  remaining at 10 min           %           10
1  COC(=O)c1ccc(OC(=O)CCCc2ccc(NC(=O)c3ccccc3-c3ccc(C(F)(F)F)cc3)c(C(=O)N(C)C)c2)cc1C  remaining at 10 min           %            2
2  CN(C)C(=O)c1cc(CCCC(=O)Oc2ccc(C#N)cc2)ccc1NC(=O)c1ccccc1-c1ccc(C(F)(F)F)cc1  remaining at 10 min           %            0
